- Tested on: Plasmodium berghei
- assay-procedure: Luciferase/luciferin-expressing antifolate-resistant parasites were used to infect a culture of HepG2 cells that were pre-incubated with compounds. Infected hepatocytes emit light due to the luciferase reaction. Assay results are presented as the percent inhibition of light emission compared to control. […]
- Format: functional
- setup-conditions: sporozoite, PBLUC_HILL_SLOPE 2.81, PBLUC_R_SQUARED 0.81, read-out: LUCIFERASE INFECTION ASSAY - IC50
measure: pIC50
Kindly note that pIC50 refers to -log10 of the concentration in mol/L and answer with the value alone.

IN: Enter pIC50 (test system Plasmodium berghei) for N=c1c2ccccc2nnn1-c1ccc(C(F)(F)F)cc1
OUT: 5.48

Recorded values, source ChEMBL document CHEMBL4483862.
